Experiment: Hygroscopicity by dynamic moisture sorption gravimetry (DMSG)
Type: physicochemical
Conditions: DMSG, 25° C., 80% relative humidity
Where a name gives a salt, the structure may show the parent alone.
# Water Uptake at 80% RH (wt. %) per record follows

A selection of reference data follows.
# compound, Water Uptake at 80% RH (wt. %)
records = [
    ("Cc1[nH]c(/C=C2\\C(=O)Nc3ccc(F)cc32)c(C)c1C(=O)NC[C@H](O)CN1CCOCC1 [L-malate]", "12–13 wt. %"),
    ("Cc1[nH]c(/C=C2\\C(=O)Nc3ccc(F)cc32)c(C)c1C(=O)NC[C@H](O)CN1CCOCC1 [HCl, form 1]", "3–20 wt. %"),
]

Here is another compound to look at.
query: Param item = Cc1[nH]c(/C=C2\C(=O)Nc3ccc(F)cc32)c(C)c1C(=O)NC[C@H](O)CN1CCOCC1 [Mandalate] ; retrieve measured Water Uptake at 80% RH (wt. %).
result: 5–6 wt. %
